Tested on: RARa:RXR (NR concentration 270 nM, RXRa partner concentration 90 nM)
Assay: PBM binding z-score (relative to random genomic background probes); higher = stronger binding; sequences stand for … in GC…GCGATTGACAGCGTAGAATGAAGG
Record 1 whenever PBM binding z-score is at 0.7 or higher; record 0 when lower.

SEQUENCE_ENTRY	GROUP_LABEL
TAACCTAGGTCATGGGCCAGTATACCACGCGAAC	1
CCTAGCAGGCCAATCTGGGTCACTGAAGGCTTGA	1
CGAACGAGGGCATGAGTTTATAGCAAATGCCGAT	0
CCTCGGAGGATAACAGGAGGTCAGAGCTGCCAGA	1
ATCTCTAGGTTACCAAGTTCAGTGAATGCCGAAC	1
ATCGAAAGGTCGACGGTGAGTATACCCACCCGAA	1
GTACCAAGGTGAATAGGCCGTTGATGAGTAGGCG	0
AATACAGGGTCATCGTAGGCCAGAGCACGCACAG	1
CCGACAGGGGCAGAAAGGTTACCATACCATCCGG	1
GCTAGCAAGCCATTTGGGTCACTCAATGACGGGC	0
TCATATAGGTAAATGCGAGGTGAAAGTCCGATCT	1
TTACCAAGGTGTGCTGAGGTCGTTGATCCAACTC	1
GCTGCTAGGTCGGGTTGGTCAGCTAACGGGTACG	0
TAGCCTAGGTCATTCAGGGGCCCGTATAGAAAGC	1
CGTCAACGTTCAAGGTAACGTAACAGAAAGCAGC	0
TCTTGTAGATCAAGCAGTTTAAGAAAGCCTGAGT	0
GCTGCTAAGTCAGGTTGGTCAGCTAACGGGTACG	0
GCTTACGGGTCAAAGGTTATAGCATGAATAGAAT	1
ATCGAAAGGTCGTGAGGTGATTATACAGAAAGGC	1
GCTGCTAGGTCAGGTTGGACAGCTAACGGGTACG	0
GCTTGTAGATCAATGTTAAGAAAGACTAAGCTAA	0
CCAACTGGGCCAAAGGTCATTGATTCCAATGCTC	1
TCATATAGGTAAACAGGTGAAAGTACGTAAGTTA	1
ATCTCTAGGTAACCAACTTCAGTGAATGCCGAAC	0
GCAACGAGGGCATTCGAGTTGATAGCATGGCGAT	0
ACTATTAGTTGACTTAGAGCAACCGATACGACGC	0
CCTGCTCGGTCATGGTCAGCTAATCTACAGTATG	0
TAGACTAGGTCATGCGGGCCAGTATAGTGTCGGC	1
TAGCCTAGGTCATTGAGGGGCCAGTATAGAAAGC	1
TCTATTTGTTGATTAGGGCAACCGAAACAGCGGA	1
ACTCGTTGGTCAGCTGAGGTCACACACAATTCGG	1
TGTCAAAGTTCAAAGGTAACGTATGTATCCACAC	1
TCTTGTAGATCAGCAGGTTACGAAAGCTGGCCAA	0
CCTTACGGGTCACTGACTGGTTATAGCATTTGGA	1
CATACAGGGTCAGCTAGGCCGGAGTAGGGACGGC	1
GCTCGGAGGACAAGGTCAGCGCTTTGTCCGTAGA	1
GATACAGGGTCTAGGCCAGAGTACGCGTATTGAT	0
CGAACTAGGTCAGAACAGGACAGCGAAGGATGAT	1
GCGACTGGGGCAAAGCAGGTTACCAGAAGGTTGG	0
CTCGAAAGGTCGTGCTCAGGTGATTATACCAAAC	1
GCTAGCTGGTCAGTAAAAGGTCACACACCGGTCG	1
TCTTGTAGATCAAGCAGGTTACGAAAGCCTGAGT	1
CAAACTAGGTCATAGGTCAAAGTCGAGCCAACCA	1
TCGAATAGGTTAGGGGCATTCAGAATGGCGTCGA	1
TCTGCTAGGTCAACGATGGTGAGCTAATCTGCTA	1

----------
Test system: PPARg:RXRa 30nM:10nM, anti-RXR (NR concentration 30 nM, RXRa partner concentration 10 nM)
Experiment: PBM binding z-score (relative to random genomic background probes); higher = stronger binding; sequences stand for … in GC…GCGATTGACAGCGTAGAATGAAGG

SEQUENCE_ENTRY	TARGET_SYSTEM	PBM binding z-score
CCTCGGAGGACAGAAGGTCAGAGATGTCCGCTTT	PPARg:RXRa 30nM:10nM, anti-RXR (NR concentration 30 nM, RXRa partner concentration 10 nM)	-0.288
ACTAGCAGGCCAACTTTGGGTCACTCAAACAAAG	PPARg:RXRa 30nM:10nM, anti-RXR (NR concentration 30 nM, RXRa partner concentration 10 nM)	-0.236
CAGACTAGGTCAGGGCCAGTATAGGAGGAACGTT	PPARg:RXRa 30nM:10nM, anti-RXR (NR concentration 30 nM, RXRa partner concentration 10 nM)	1.04
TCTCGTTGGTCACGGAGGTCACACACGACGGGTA	PPARg:RXRa 30nM:10nM, anti-RXR (NR concentration 30 nM, RXRa partner concentration 10 nM)	2.93
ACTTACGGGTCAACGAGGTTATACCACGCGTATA	PPARg:RXRa 30nM:10nM, anti-RXR (NR concentration 30 nM, RXRa partner concentration 10 nM)	1.82
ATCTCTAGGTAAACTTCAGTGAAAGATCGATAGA	PPARg:RXRa 30nM:10nM, anti-RXR (NR concentration 30 nM, RXRa partner concentration 10 nM)	0.397
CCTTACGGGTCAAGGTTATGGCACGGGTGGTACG	PPARg:RXRa 30nM:10nM, anti-RXR (NR concentration 30 nM, RXRa partner concentration 10 nM)	1.8
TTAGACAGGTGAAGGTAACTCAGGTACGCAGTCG	PPARg:RXRa 30nM:10nM, anti-RXR (NR concentration 30 nM, RXRa partner concentration 10 nM)	1.9
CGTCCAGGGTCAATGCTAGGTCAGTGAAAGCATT	PPARg:RXRa 30nM:10nM, anti-RXR (NR concentration 30 nM, RXRa partner concentration 10 nM)	1.57

----------
Test system: RXRa DBDmut IVT, anti-RXR (DBD mutation: RXRa K156A/R161A, NR concentration 90 nM)
Test: PBM binding z-score (relative to random genomic background probes); higher = stronger binding; sequences stand for … in GC…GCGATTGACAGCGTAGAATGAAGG
Known PBM binding z-score of a selection of sequences

SEQUENCE_ENTRY	PBM binding z-score
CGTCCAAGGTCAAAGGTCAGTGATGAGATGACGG	3.72
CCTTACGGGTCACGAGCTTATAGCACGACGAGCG	1.94
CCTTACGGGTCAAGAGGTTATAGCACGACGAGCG	0.748
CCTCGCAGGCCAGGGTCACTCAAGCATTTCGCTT	0.363
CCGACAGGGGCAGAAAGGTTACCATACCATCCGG	-0.361
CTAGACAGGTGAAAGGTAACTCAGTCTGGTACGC	-0.39
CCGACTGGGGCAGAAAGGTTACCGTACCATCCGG	-0.805
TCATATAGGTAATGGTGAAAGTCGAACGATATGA	0.843
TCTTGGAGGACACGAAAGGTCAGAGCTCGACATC	1.26
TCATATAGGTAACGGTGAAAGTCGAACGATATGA	0.399
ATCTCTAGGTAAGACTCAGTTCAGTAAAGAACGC	0.632
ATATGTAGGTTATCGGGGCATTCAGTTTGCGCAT	1.35
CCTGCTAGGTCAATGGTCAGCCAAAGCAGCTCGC	1.48
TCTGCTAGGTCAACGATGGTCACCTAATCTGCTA	1.06
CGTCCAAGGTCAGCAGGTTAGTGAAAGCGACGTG	2.64
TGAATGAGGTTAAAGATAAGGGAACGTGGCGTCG	1.25
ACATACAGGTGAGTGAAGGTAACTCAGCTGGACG	0.0119
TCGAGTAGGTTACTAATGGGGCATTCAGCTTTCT	0.272
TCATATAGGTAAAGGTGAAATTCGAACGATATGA	0.746
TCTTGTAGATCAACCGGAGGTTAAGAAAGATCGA	0.651
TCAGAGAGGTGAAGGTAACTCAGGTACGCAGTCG	1.31
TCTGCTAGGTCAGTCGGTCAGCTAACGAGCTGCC	0.278
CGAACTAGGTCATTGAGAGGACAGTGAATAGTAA	2.07
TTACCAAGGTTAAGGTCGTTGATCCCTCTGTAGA	1.41
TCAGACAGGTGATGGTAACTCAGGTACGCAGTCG	0.843
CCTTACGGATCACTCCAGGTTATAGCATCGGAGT	0.552
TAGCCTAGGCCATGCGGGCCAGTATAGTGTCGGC	-1.68
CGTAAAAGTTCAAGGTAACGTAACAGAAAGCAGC	4.27
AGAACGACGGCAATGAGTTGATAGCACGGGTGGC	-0.402
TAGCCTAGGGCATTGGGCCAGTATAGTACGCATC	-0.706
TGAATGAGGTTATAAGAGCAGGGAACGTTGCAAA	0.547
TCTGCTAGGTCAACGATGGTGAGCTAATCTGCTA	0.81
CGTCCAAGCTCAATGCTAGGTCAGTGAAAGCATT	-0.0158
